Entries and their IC50
subject.of.test: renin (Homo sapiens, UniProt P00797)
Sequence (P00797 67-406, species assumed): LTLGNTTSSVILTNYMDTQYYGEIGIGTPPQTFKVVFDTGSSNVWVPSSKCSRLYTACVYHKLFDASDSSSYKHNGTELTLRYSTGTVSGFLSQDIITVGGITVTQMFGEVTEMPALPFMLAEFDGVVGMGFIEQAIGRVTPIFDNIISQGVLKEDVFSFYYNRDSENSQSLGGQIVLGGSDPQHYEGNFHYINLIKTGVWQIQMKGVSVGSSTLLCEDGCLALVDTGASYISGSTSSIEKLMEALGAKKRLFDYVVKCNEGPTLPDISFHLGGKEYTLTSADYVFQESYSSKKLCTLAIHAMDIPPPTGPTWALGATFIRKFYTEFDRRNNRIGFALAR
experimental.protocol: in vitro renin inhibitory activity, radioimmunoassay for angiotensin I
Format: biochemical
test.settings: renin incubated 2 hours at 37° with angiotensinogen; values marked * = IC50; read-out: In Vitro Activity, IC50 (molar concentration causing a 50% inhibition of the renin activity)
The response must be a number in µM with no trailing unit.

molecule	subject.of.test	measurement
CC(C)C[C@H](O)[C@H](O)[C@H](CC1CCCCC1)NC(=O)CCC(O)[C@H](Cc1ccccc1)NS(=O)(=O)N1CCOCC1 (single isomer, unassigned) [SMOPHE.psi.[CHOHCH2 ]GLYCAD (Isomer B), SMO-PHE.PSI.[CHOHCH2 ]GLY-CAD (Isomer B)]	renin (Homo sapiens, UniProt P00797)	0.017

CC(C)C[C@H](O)[C@H](O)[C@H](CC1CCCCC1)NC(=O)CCC(O)[C@H](Cc1ccccc1)NC(=O)OCc1ccccc1 (mixture of isomers) [ZPHE.psi.[CHOHCH2 ]GLYCAD (Mixture of Diastereomers)] has a reported IC50 of 0.24

CC(C)C[C@H](O)[C@H](O)[C@H](CC1CCCCC1)NC(=O)CCC(O)[C@H](Cc1ccccc1)NC(=O)OC(C)(C)C (mixture of isomers) [BOCPHE.psi.[CHOHCH2 ]GLYCAD (Mixture of Diastereomers)] has a reported IC50 of 0.03

CC(C)C[C@H](O)[C@H](O)[C@H](CC1CCCCC1)NC(=O)CCC(O)[C@H](Cc1ccccc1)NC(=O)OC(C)(C)C (single isomer, unassigned) [BOCPHE.psi.[CHOHCH2 ]GLYCAD (Slow Eluting Diastereomer)] has a reported IC50 of 0.015

###

subject.of.test: renin (Homo sapiens)
measure.name: IC50 (nM)
The response must be a number in nM with no trailing unit.

compound	measure.name	measurement
CC(C)C[C@H](O)[C@H](O)[C@H](CC1CCCCC1)NC(=O)CCC(O)[C@H](Cc1ccccc1)NC(=O)OCc1ccccc1 (single isomer, unassigned) [ZPHE.psi.[CHOHCH2 ]GLYCAD (Slow Eluting Diastereomer)]	IC50	200
CC(C)C[C@H](O)[C@H](O)[C@H](CC1CCCCC1)NC(=O)C=CC(O)[C@H](Cc1ccccc1)NS(=O)(=O)N1CCOCC1 (stereo partly drawn) [SMOPHE.psi.[CHOHCHCHCO]CAD, SMO-PHE.PSI.[CHOHCH=CHCO]CAD]	IC50	25

Proceed to the following item.
The reported renin (Homo sapiens) IC50 of CC(C)C[C@H](O)[C@H](O)[C@H](CC1CCCCC1)NC(=O)CCC(O)[C@H](Cc1ccccc1)NS(=O)(=O)N1CCOCC1 (single isomer, unassigned) [SMOPHE.psi.[CHOHCH2 ]GLYCAD (Isomer A), SMO-PHE.PSI.[CHOHCH2 ]GLY-CAD (Isomer A)] is 2.3
